[
  {
    "SMILES CODE": "CC(=O)Nc1nc2c(Oc3cc(N4CCN([C@H](C)c5ccc(F)cc5)CC4)ncn3)cccc2s1",
    "melting point": "243.8 to 245.9 °C"
  },
  {
    "SMILES CODE": "C[C@@H](c1ccc(F)cc1)N1CCN(c2cc(Oc3cccc4[nH]c(=O)c(N)nc34)ncn2)CC1",
    "melting point": "294.5 to 295.3 °C"
  },
  {
    "SMILES CODE": "C[C@H](c1ccc(F)cc1)N1CCN(c2cc(Oc3cccc4[nH]c(=O)c(N)nc34)ncn2)CC1",
    "melting point": "292.2 to 293.9 °C"
  }
]
